Where do the numbers come from? From patent US20030109523A1.

- study_target: αIIbβ3 integrin (Homo sapiens, UniProt P05106+P08514)
- Construct: Human Platelets: Platelet-enriched plasma was obtained commercially from a donor pool; from tissue; host or cells: human platelet-rich plasma from a commercial donor pool
- Sequence (P08514 32-887 limits assumed): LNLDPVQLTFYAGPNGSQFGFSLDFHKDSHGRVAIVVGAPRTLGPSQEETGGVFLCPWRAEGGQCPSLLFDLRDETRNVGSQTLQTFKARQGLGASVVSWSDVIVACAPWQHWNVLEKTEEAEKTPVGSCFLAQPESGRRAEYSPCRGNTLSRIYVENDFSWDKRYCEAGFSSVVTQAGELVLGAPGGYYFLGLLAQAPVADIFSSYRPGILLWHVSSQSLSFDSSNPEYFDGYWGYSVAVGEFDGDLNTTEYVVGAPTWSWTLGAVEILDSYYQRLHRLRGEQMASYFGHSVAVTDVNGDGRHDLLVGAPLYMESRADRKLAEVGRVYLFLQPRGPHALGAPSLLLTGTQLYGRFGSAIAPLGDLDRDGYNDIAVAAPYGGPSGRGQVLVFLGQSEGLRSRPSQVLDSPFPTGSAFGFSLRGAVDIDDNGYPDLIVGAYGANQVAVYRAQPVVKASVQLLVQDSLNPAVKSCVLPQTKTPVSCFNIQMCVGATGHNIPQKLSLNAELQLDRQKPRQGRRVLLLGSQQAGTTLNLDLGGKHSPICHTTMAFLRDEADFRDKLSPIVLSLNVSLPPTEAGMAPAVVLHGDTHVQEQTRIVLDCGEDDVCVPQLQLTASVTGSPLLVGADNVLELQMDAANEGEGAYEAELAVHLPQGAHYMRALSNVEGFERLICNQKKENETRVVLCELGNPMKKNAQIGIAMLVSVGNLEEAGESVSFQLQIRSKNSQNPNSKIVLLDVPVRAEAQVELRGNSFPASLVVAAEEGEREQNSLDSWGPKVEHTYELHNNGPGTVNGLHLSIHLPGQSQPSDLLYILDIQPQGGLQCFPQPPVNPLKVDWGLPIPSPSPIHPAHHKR
- Sequence (P08514 891-1039 partner limits assumed): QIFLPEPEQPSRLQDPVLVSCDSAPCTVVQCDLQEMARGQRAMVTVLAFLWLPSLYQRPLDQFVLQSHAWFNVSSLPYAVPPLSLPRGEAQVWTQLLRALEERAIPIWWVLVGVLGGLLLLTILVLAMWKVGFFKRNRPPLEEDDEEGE
- Sequence (P05106 27-788): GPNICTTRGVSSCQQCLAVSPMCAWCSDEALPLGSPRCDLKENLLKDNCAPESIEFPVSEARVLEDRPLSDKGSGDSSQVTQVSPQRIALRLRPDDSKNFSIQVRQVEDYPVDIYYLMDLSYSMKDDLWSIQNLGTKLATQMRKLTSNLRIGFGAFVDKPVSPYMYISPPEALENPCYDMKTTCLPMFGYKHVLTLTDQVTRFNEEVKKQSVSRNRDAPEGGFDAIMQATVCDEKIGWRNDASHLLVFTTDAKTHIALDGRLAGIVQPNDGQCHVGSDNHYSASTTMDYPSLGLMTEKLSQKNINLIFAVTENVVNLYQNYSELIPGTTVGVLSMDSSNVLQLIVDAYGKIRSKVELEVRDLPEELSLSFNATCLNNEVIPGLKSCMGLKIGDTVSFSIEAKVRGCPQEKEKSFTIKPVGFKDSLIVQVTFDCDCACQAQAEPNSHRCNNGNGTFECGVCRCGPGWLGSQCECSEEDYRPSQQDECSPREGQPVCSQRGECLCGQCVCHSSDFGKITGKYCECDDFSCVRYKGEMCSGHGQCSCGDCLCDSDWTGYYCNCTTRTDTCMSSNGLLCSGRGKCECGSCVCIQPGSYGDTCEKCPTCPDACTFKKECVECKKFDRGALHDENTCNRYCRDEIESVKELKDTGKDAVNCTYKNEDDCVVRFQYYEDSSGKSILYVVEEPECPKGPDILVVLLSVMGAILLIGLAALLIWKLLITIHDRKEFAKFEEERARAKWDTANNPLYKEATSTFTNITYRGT
- assay: ADP-Induced Platelet Aggregation
- Assay type: cell-based
- condition_context: Table VII; ADP 20 uM, human platelets; read-out: Platelet Aggregation αIIbβ3 IC50
pIC50: −log10 of the molar value. Structures can show the parent of a compound that is named as a salt.
Measured pIC50 values are reported for all entries that follow.
measurement_type: pIC50

[[record]]
molecule = "N=C(N)NCCCCNC(=O)c1ccc2c(c1)NC(=O)C(CC(=O)O)C2 (centres unmarked) [Example 202, Hydrochloride]"
measurement_type = "pIC50"
recorded_measurement = 4.06

[[record]]
molecule = "Cl.N=C(N)NCCC#Cc1ccc2c(c1)NC(=O)C(CC(=O)O)C2 (centres unmarked) [Example 100, Hydrochloride]"
measurement_type = "pIC50"
recorded_measurement = 3.67

[[record]]
molecule = "N=C(N)NCCCCOc1ccc2c(c1)CC(CCC(=O)O)C(=O)N2 (centres unmarked)"
measurement_type = "pIC50"
recorded_measurement = 4.28

[[record]]
molecule = "N=C(N)NCCCCOc1ccc2c(c1)CC(CC(=O)O)C(=O)N2 (centres unmarked)"
measurement_type = "pIC50"
recorded_measurement = 3.84

[[record]]
molecule = "N=C(N)NCCCC#Cc1ccc2c(c1)NC(=O)C(CC(=O)O)C2 (centres unmarked) [Example 101, Trifluoroacetate]"
measurement_type = "pIC50"
recorded_measurement = 3.97


----------
Where a name gives a salt, the structure may show the parent alone.
measurement_type: melting point

[[record]]
compound = "N=C(N)NCCOc1ccc2cc(CC(=O)O)c(=O)[nH]c2c1 (as salt: trifluoroacetate) [Example 185]"
measurement_type = "melting point"
recorded_measurement = "219 to 220 °C"

[[record]]
compound = "N=C(N)NCCCCCc1ccc2c(c1)NC(=O)C(CC(=O)O)C2.O=C(O)C(F)(F)F (centres unmarked) [Example 122]"
measurement_type = "melting point"
recorded_measurement = "148 to 151 °C"

[[record]]
compound = "Cl.N=C(N)NCCC#Cc1ccc2c(c1)NC(=O)C(CC(=O)O)C2 (centres unmarked) [Example 100]"
measurement_type = "melting point"
recorded_measurement = "130 to 180 °C"

[[record]]
compound = "Cl.N=C(N)NCCCOc1ccc2c(c1)NC(=O)C(CC(=O)O)C2 (centres unmarked) [Example 86]"
measurement_type = "melting point"
recorded_measurement = "227 to 229 °C"

[[record]]
compound = "N=C(N)NCCCC=Cc1ccc2c(c1)NC(=O)C(CC(=O)O)C2.O=C(O)C(F)(F)F (centres unmarked) [Example 113]"
measurement_type = "melting point"
recorded_measurement = "162 to 165 °C"

[[record]]
compound = "N=C(N)NCCOc1ccc2c(c1)NC(=O)C(CCC(=O)O)C2 (centres unmarked) [Example 230]"
measurement_type = "melting point"
recorded_measurement = "193 to 196 °C"

[[record]]
compound = "N=C(N)NCCCOc1ccc2cc(CC(=O)O)c(=O)n(Cc3ccccc3)c2c1 [Example 155]"
measurement_type = "melting point"
recorded_measurement = "132 to 134 °C"

[[record]]
compound = "CCn1c(=O)c(CC(=O)O)cc2ccc(OCCCN)cc21.O=C(O)C(F)(F)F"
measurement_type = "melting point"
recorded_measurement = "182 to 184 °C"

[[record]]
compound = "N=C(N)NCCCCOc1ccc2c(c1)NC(=O)C(CC(=O)O)C2.O=C(O)C(F)(F)F (centres unmarked) [Example 84]"
measurement_type = "melting point"
recorded_measurement = "189 to 191 °C"

[[record]]
compound = "NCCCOc1ccc2cc(CC(=O)O)c(=O)n(Cc3ccccc3)c2c1 (as salt: salt) [Example 136]"
measurement_type = "melting point"
recorded_measurement = "126 to 128 °C"

[[record]]
compound = "N=C(N)NCCCOc1ccc2c(c1)NC(=O)C(CCC(=O)O)C2 (centres unmarked) [Example 231]"
measurement_type = "melting point"
recorded_measurement = "157 to 159 °C"

[[record]]
compound = "N=C(N)NCCCCOc1ccc2c(c1)NC(=O)C(CCC(=O)O)C2 (centres unmarked) [Example 232]"
measurement_type = "melting point"
recorded_measurement = "176 to 177 °C"

[[record]]
compound = "N=C(N)NCCCOc1ccc2cc(CC(=O)O)c(=O)n(Cc3ccccc3)c2c1.O=C(O)C(F)(F)F [Example 239]"
measurement_type = "melting point"
recorded_measurement = "132 to 134 °C"

[[record]]
compound = "N=C(N)NCCCOc1ccc2c(c1)CCCC(CC(=O)O)C2.O=C(O)C(F)(F)F (centres unmarked) [Example 62]"
measurement_type = "melting point"
recorded_measurement = "109 to 114 °C"

[[record]]
compound = "N=C(N)NCCOc1ccc2c(c1)CC(CCC(=O)O)C(=O)N2 (centres unmarked) (as salt: salt) [Example 222]"
measurement_type = "melting point"
recorded_measurement = "119 to 122 °C"

[[record]]
compound = "N=C(N)NCCOc1ccc2cc(CCC(=O)O)c(=O)[nH]c2c1.O=[N+]([O-])O [Example 247]"
measurement_type = "melting point"
recorded_measurement = "211 °C (dec.)"

[[record]]
compound = "Cl.N=C(N)NCCCCOc1ccc2cc(CC(=O)O)c(=O)[nH]c2c1 [Example 184]"
measurement_type = "melting point"
recorded_measurement = "216.5 to 219 °C"

